The reported numbers originate from ChEMBL document CHEMBL3988442.

Answer each item with its documented Percent Effect.
Biological target: Tyrosyl-tRNA synthetase, putative (Trypanosoma cruzi (strain CL Brener))
Experiment: Trypanosoma cruzi tyrosyl tRNA synthetase (TcYRS) SOP
Assay type: functional
Parameters: scale not given: direction of the effect not stated beside the values
Conditions: 30 µM
Answers are plain numbers, in %.

The following compounds have reported results that may help.
Cc1cc(N2CCCC2c2cnccn2)ncn1 (configuration not stated)
14.3
Cc1cc(CN2CCN(C(=O)Nc3cccnc3)CC2)on1
17.1
Cc1ccc(CNC(=O)CCSCc2csc(C)n2)cn1
8.86
Cc1ccccc1CCNC(=O)C1CC(=O)N(CC(F)(F)F)C1 (configuration not stated)
18.5
Cc1ccc(CN(Cc2c[nH]cn2)C2CC(C)(C)NC(C)(C)C2)o1
3.9
Cc1cccc(-c2nc(C)nn2CC(=O)N(C)C2CC2)c1
21.9
Cc1ccc(NC(C)C(=O)NCc2cccs2)cc1C (configuration not stated)
20
CS(=O)(=O)NCC1CCCN(C(=O)Nc2cccnc2N2CCCC2)C1 (configuration not stated)
5.2
Cc1nn(C)c(C)c1NC(=O)CN1CCCC1c1noc(C2CC2)n1 (configuration not stated)
12.5
CC(=O)Nc1nc(C(=O)N2CCCC(n3ccnc3)C2)cs1 (configuration not stated)
1.24

Below are 2 compounds. Give each one its Percent Effect.
1. O=C1COc2cc(C(=O)NS(=O)(=O)c3ccccc3F)ccc2N1
2. CS(=O)(=O)NCC1CCCCN1C(=O)Nc1cccnc1N1CCCC1 (configuration not stated)

[-11.1, 13]

---

For each entry below, report its Percent Effect value.
Target: Sialic acid-binding Ig-like lectin 9 (Homo sapiens) (UniProt Q9Y336)
Sequence (Q9Y336 whole entry): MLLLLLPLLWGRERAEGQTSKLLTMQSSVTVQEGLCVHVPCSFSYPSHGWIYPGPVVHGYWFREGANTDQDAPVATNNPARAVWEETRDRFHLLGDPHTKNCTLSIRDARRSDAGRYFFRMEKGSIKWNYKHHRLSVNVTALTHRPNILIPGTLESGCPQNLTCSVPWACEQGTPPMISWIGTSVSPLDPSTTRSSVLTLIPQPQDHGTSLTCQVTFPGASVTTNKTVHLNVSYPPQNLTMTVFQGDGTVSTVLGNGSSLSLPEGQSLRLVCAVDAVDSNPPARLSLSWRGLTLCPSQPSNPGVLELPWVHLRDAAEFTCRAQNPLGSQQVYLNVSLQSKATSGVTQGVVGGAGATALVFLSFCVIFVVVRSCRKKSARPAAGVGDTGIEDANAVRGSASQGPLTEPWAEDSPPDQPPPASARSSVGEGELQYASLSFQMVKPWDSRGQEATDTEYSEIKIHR
Experiment: Hs-Siglec9 ALPHAscreen SOP 20170721
Design: scale not given: direction of the effect not stated beside the values
Settings: 10 µM
Answers are plain numbers, in %.

CC(C)CC(=O)N1CCc2nc(N3CCOCC3)nc(NC(C)C)c2C1
-0.324

Batch: Percent Effect for all items listed.
1. CCn1cnnc1C1CCN(C(=O)c2ccc(Cl)s2)CC1
2. CC(C)Cc1noc(CN2CCCC(Cn3cncn3)C2)n1 (stereo unspecified)
3. CN(Cc1nnc(C2CC2)n1C)C1CCN(Cc2ccon2)C1 (stereo unspecified)
4. Cc1cccnc1NC(=O)CC1(Cn2cnnn2)CCCCC1
5. CC(c1nc(C2CC2)no1)N1CCN(CCOCC(F)(F)F)CC1 (stereo unspecified)

1. 2.56
2. 16.6
3. -5.53
4. 3.53
5. 10.2

---

Record form. Attribute: Percent Effect. Fill in for each entry.
Target: AMP-activated protein kinase, AMPK (Homo sapiens) (UniProt P54646+O43741+P54619+Q9UGJ0+Q9Y478+Q13131+Q9UGI9)
Assay: AMP-dependent Kinase enzyme assay. An in vitro enzyme assay that detects ADP turnover that is directly proportional to AMPK activity. This uses naive AMPK that is activated during the assay with MK-8722
Format: functional
Set-up: scale not given: direction of the effect not stated beside the values
Details: 30 µM

CCn1cc(NC(=O)NCC2(N3CCOCC3)CCSC2)cn1 (centres undefined)
2.58%
CN(Cc1cn2c(n1)CN(C(=O)CC1CC1)CC2)Cc1ccco1
8.42%
CO[C@H]1CN(Cc2cccc(C#N)c2)[C@@H]2COC[C@H]12
-0.964%
N#Cc1cccc(NC(=O)N[C@H](CO)c2ccccc2)c1
5.16%
O=C(NC[C@]12COC[C@H]1CN(Cc1nccs1)C2)c1ccccc1
-62.1%

Would you be so kind as to report Percent Effect for each listed record?
1. CC(C)(C)N1CCCN(C(=O)c2csc(S(N)(=O)=O)c2)CC1
2. O=C(COc1cccc(Br)c1)N1CCOCC1c1ncon1 (centres undefined)
3. CCn1nccc1CNC(=O)NC1CCCCC1
4. O=C(COCc1ccccc1Cl)N1CCCC(n2cccn2)C1 (centres undefined)
5. O=S(=O)(N(Cc1ccccn1)C1CC1)N1CCCC1c1ccco1 (centres undefined)

["1.87%", "-2.58%", "7.6%", "6.5%", "0.691%"]

Hey, quick one: what's Percent Effect for each of these?
1. NS(=O)(=O)N1CCc2ccc(NC(=O)Cc3ccc(F)cc3)cc21
2. N#Cc1ccc(OCCCN2CCc3cncnc3C2)cc1
3. Cc1c(C(=O)NC(CN2CCCC2=O)c2ccccc2)cnn1C (centres undefined)
4. COc1ccc(NC(=O)NC(C)(C)c2noc(C)n2)cc1
5. CCn1cnnc1C1CCN(C(=O)c2ccc(C(=O)OC)s2)CC1
6. CN(C)C(=O)N1CCC2(CCCN(Cc3cnn(C)c3)C2)C1 (centres undefined)
7. CC(C)c1ncncc1C(=O)N1CCN(Cc2cscn2)CC1

["-2.62%", "-14.8%", "1.96%", "9.96%", "4.62%", "12%", "-16%"]

Field: Percent Effect. Fill in for each record below.
1. Cc1ccc(C2COCCN2C(=O)c2ccc(CN(C)C)cc2)o1 (centres undefined)
2. COc1ccc(NC(=O)CCC2CCCN(Cc3ncon3)C2)cc1Cl (centres undefined)
3. COc1cccc(CN2CCCCCC2c2cccc(C)c2)c1O (centres undefined)
4. CCc1nnc2n1CCN(C(=O)c1ccc(C(F)(F)F)nc1C)C2
5. COc1ccccc1CC(=O)N1CCCC(n2nc(C)cc2C)C1 (centres undefined)
6. Cc1nc(C)n(CC2CCCCN2CC(=O)N(C)Cc2ccco2)n1 (centres undefined)
7. COC(=O)c1cccc(C(=O)N2CCN(c3cccc(C)c3C)CC2)n1

["-1.26%", "-3.08%", "18.9%", "-4.83%", "2.98%", "13.5%", "-2.32%"]

---

Target: Ubiquitin-activating enzyme e1, putative (Leishmania donovani (strain BPK282A1)) (UniProt E9BSI1)
Sequence (E9BSI1 as listed by the source): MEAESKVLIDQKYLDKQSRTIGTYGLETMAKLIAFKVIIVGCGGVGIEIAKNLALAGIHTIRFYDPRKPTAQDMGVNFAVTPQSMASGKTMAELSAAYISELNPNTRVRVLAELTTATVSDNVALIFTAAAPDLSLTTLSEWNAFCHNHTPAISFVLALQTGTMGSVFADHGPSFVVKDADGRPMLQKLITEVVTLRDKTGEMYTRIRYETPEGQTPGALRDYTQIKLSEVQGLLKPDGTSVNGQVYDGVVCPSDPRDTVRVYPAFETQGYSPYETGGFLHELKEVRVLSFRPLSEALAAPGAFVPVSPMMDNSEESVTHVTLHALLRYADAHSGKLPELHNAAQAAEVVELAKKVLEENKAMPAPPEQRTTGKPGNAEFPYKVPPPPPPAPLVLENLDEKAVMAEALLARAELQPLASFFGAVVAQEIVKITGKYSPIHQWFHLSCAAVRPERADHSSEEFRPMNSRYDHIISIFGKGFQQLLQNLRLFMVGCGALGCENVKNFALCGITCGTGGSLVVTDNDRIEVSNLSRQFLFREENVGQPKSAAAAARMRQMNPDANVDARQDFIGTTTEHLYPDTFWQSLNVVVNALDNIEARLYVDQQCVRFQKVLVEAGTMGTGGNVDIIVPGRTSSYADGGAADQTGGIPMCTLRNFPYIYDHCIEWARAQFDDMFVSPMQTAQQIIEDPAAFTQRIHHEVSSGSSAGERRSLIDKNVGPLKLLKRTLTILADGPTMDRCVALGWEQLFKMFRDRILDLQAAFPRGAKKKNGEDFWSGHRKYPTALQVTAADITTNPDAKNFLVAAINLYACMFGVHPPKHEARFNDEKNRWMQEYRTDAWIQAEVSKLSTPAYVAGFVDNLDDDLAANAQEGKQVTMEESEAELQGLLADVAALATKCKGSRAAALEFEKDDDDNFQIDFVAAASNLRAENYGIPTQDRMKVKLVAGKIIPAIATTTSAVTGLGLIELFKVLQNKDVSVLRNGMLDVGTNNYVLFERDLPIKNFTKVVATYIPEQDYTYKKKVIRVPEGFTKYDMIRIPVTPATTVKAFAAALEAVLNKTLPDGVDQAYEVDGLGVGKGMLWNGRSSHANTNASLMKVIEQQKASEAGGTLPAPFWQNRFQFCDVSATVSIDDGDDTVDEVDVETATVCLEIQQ
Experiment: Leishmania donovani Ubiquitin Activating Enzyme (LdE1)
Format: functional
Parameters: scale not given: direction of the effect not stated beside the values
Conditions: 30 µM
Potency and affinity values are given separately.
ENDPOINT: Percent Effect (%)
One number for each entry, in %.

Recorded Percent Effect, per entry:
COCCCN(CCOC)C(=O)Nc1ccccc1Br
-5.26
CCO[C@@H]1CO[C@@]2(CCCN(C(=O)c3ccc(OC)c(F)c3)C2)C1
10.4
O=C(c1ccn(-c2ccccc2Cl)n1)N1CCSCC1
8.11
Cn1cc(NC(=O)Cn2c(CS(C)(=O)=O)nc3ccccc32)cn1
7.89
CC(C)c1nn(C)c(N2CCOCC2)c1CNC(C)c1cccs1 (configuration not stated)
-13.2
Cc1ncnc2c1CCN(Cc1cccs1)CC2
8

Batch lookup, Percent Effect per entry.
1. O=C(CCc1ccc(O)cc1)N1CCC(Cc2ccc(CO)cc2)C1 (configuration not stated)
2. Cc1nccc(C2CN(Cc3cc[nH]n3)CCO2)n1 (configuration not stated)
3. O=C(COc1coc(CN2CCCC2)cc1=O)NCc1ccccc1Cl
4. O=C(CCc1ccsc1)NCC1CCN(c2ccccc2)C1 (configuration not stated)
5. CC(C)c1cnc(CNc2c(F)cccc2-n2cccn2)o1
6. COc1ccc(Br)c(C(=O)N2CCC(c3n[nH]c(C4CC4)n3)CC2)c1

6.94
1.35
1.33
-6.94
-1.39
16.5

---

Kindly state Percent Effect for each of the entries shown.
Biological target: Arginase-2, mitochondrial (Homo sapiens) (UniProt P78540)
Sequence (P78540 whole entry): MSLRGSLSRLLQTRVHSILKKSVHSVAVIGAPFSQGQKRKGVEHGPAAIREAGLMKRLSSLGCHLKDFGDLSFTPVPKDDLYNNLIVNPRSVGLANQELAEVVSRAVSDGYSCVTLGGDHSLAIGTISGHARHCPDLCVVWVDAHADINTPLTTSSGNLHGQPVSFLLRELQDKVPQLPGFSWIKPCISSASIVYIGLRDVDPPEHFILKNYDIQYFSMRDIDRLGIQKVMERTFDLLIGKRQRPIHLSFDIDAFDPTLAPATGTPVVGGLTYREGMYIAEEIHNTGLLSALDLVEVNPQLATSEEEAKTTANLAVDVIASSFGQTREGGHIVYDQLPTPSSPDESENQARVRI
Assay: in vitro enzyme assay to detect the production of urea directly proportional to the activity of Arginase II; note: in the data most compounds retested in dose-response had high values
Assay type: functional
Set-up: scale not given: direction of the effect not stated beside the values
Details: 33.3 µM

Illustrative cases are given below, each with its answer.
CCCS(=O)(=O)N1CCOCC2(CCN(c3ccccn3)C2)C1 (stereo not drawn)
1.58%
O=C1NC(c2ccccc2)=N[C@@]12CC[C@@H]1CN(CC3CCOCC3)C[C@@H]12
-48.6%
CC(C)NC(=O)N1CC[C@@H]2CN(Cc3cccc(Cl)c3)S(=O)(=O)[C@@H]2CC1
-59.3%

Look up Percent Effect for the entries below, preserving their order.
1. Cc1noc2ncc(C(=O)NCC3CCOC3)cc12 (stereo not drawn)
2. CCc1ccc(CCC(=O)N2CCOCC2c2ncon2)cc1 (stereo not drawn)
3. CCc1nc(CC(=O)N2CCn3c(nnc3C(F)(F)F)C2)cs1
4. COc1c(CNC(c2nccn2C)C(C)C)c(C)nn1C (stereo not drawn)
5. CO[C@H]1CN(C(=O)c2ccccn2)[C@@H]2CCCO[C@H]12
6. O=C(c1cccc2c1OCCO2)N1CCCC(n2ccnc2)C1 (stereo not drawn)
7. O=C(c1cc(COc2ccc3c(c2)OCO3)[nH]n1)N1CC=CC1CO (stereo not drawn)
8. COCCC1(CO)CCCN(Cc2ccc(F)c(C)c2)C1 (stereo not drawn)

1. 1.53%
2. 3.14%
3. 4.98%
4. -2.68%
5. 1.59%
6. 3.45%
7. 0.399%
8. -1.24%

I need Percent Effect for every entry listed below, if you could help.
1. O=C(CSc1nncs1)N1CCN(Cc2ccc(Cl)s2)CC1
2. O=C(CN1CCC(c2ccnn2CCO)CC1)NCc1cccs1
3. Cc1nc(C)n(CC2CCCN(CCNC(=O)OC(C)(C)C)C2)n1 (stereo not drawn)
4. Cc1cnc(C(=O)N2CCCN(Cc3csc(C)n3)CC2)cn1
5. Cc1ccc(CC(=O)N2CC[C@@H]3CN(CCN(C)C)CCO[C@@H]3C2)cc1

1. 0%
2. 1.52%
3. 5.26%
4. 2%
5. 2.87%

Provide Percent Effect for all items below, preserving their order.
1. CCN(CC)C(=O)c1ccn(COc2cc(C)cc(C)c2)n1
2. CCN1CCN(C(=O)c2cnn(-c3ccccc3Cl)c2)CC1
3. Cc1ccccc1CN1CCN(CC(=O)Nc2cccnc2)CC1
4. CN(CC(=O)N1CCN(c2ncccn2)CC1)c1ccc(Cl)cn1

1. -5.81%
2. -1.6%
3. 3.58%
4. 14.3%

List Percent Effect for every entry below, keeping the order given.
1. O=C(NCCCNC(=O)c1cccc(O)c1)Nc1ccc(F)cc1F
2. O=S(=O)(NCC1CCOc2ccccc2C1)N1CCOCC1 (stereo not drawn)
3. CC(c1ccccc1)n1c(SCC(=O)O)nnc1-c1ccccc1Cl (stereo not drawn)
4. CSCCCN1CCCC1c1noc(C)n1 (stereo not drawn)
5. O=C(C1SCCc2sccc21)N1CCN(CCO)CC1 (stereo not drawn)
6. CCc1nc2n(n1)CC(NCC(=O)Nc1nccs1)CC2 (stereo not drawn)
7. CNC(=O)[C@@]12CCC3(CCN(S(C)(=O)=O)CC3)[C@@H]1CN(S(C)(=O)=O)C2
8. CCc1ccc(C2CCCCCN2Cc2nc(CCOC)no2)o1 (stereo not drawn)

["-3.55%", "-1.38%", "-3.53%", "8.43%", "22.5%", "-1.9%", "0.248%", "-9.65%"]
